% inh. (percentage inhibition of IL-5 production) reference
tested on: IL-5 production; experiment: In vitro inhibition of IL-5 production in human blood (phytohemagglutinin-stimulated whole blood, ELISA); type: cell-based; details: test dose 1×10^−6 M, 48 hours;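 note: values marked with an asterisk were tested at 10 µM and unmarked values at 1 µM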
Write the number in % without appending the unit.

Consider the reported % inh. (percentage inhibition of IL-5 production) for these compounds:
For the compound Nc1ccc(SC(c2ccc(Cl)cc2)c2ccc(-n3ncc(=O)[nH]c3=O)cc2Cl)cc1 (racemic) , what % inh. (percentage inhibition of IL-5 production) is on record?
76

Entry under review: Cc1nc(C(c2ccc(Cl)cc2)c2c(Cl)cc(-n3ncc(=O)[nH]c3=O)cc2Cl)sc1-c1ccccc1 (racemic) . Reported % inh. (percentage inhibition of IL-5 production)?
91

Which % inh. (percentage inhibition of IL-5 production) is reported for this compound? O=c1cnn(-c2cc(Cl)c(C(Sc3nc(-c4ccccc4)no3)c3ccc(Cl)cc3)c(Cl)c2)c(=O)[nH]1 (racemic)
88

Requested field: % inh. (percentage inhibition of IL-5 production). Item: CCCc1nnc(C(c2ccc(Cl)cc2)c2c(Cl)cc(-n3ncc(=O)[nH]c3=O)cc2Cl)o1 (racemic)
84

Would you kindly share the measured % inh. (percentage inhibition of IL-5 production) for Cc1sc(NC(c2ccc(Cl)cc2)c2ccc(-n3ncc(=O)[nH]c3=O)cc2Cl)nc1-c1ccccc1 (racemic) ?
16

Give its % inh. (percentage inhibition of IL-5 production) value. Item: O=c1cnn(-c2cc(Cl)c(C(SCc3cnccn3)c3ccc(Cl)cc3)c(Cl)c2)c(=O)[nH]1 (racemic)
71

From here, focus on the item given below.
Quick check: % inh. (percentage inhibition of IL-5 production) of O=c1cnn(-c2cc(Cl)c(C(c3ccc(Cl)cc3)c3nc(-c4cccc(F)c4)cs3)c(Cl)c2)c(=O)[nH]1 (racemic) [Comp 21] ?
91
